Test system: Staphylococcus aureus
Experiment: Antimicrobial activity against Staphylococcus aureus CIP 4.83 after 18 to 24 hrs by broth microdilution method
Format: functional
Measurement kind: MBC

Indicate its recorded MBC; the compound in question is O=C(O)c1cn(C2CC2)c2cc(N3CCN(C(=O)CCCCCCCCCCCCC(=O)N4CCN(c5cc6c(cc5F)c(=O)c(C(=O)O)cn6C5CC5)CC4)CC3)c(F)cc2c1=O
1.9 µM

Indicate its recorded MBC; the compound in question is CCCCCCCCCCC(=O)OCC(=O)N1CCN(c2cc3c(cc2F)c(=O)c(C(=O)O)cn3C2CC2)CC1
≤ 0.97 µM

Indicate its recorded MBC; the compound in question is CCCCCCCCCC(=O)OCC(=O)N1CCN(c2cc3c(cc2F)c(=O)c(C(=O)O)cn3C2CC2)CC1
≤ 0.97 µM
